Below: a set of entries, each annotated with reported inhibition.
# measured.target: Hexose transporter 1 (Plasmodium falciparum)
# assay.notes: ST_JUDE_LEISH: Cytotoxicity at 2uM final concentration against transgenic Leishmania Mexicana promastigotes LmPfHT that are glucose transport deficient and complemented with the Plasmodium falciparum hexose transporter. Activity is measured by DNA content using SYBR green in vitro
# Format: functional
value.kind: inhibition (%)

compound	measured.target	unit.text	numeric.result
COc1cc(C(=O)N2COCC(CCCN3CCC(N4CCCC4)CC3)(c3ccc(Cl)c(Cl)c3)C2)cc(OC)c1OC (stereo not given)	Hexose transporter 1 (Plasmodium falciparum)	%	3.39
COc1cc2c(Nc3cccc(NC(=O)c4ccccc4)c3)ncnc2cc1OCCCN1CCOCC1	Hexose transporter 1 (Plasmodium falciparum)	%	2.08
Brc1cc(Br)c2c(c1)C(NCCCNc1nc3ncccc3[nH]1)CCN2 (stereo not given)	Hexose transporter 1 (Plasmodium falciparum)	%	78.5
N#Cc1ccc(NC2(C(=O)N3CCN(c4cccc(Cl)c4)CC3)CC2)c2ccccc12	Hexose transporter 1 (Plasmodium falciparum)	%	2.36
O=C(NCC1CCN(CC2CCCCC2)C1)c1cc(-c2cccc(C(F)(F)F)c2)cs1 (stereo not given)	Hexose transporter 1 (Plasmodium falciparum)	%	-0.44
CCOC(=O)c1sc(C(C)Nc2ccccc2)nc1-c1ccccc1 (stereo not given)	Hexose transporter 1 (Plasmodium falciparum)	%	-0.3
Nc1ncc(-c2cn[nH]c2)cc1-c1nc2ccc(Cl)cc2[nH]1	Hexose transporter 1 (Plasmodium falciparum)	%	3.75
COc1ccc2nccc([C@@H](O)CN3C4CCC3CC(NCc3ccc5c(n3)NC(=O)CS5)C4)c2n1 (stereo not given in full)	Hexose transporter 1 (Plasmodium falciparum)	%	1.76
CC(=O)/N=C1\N=C(NC(C)=O)NC(C)(C)N1OCCCOc1ccc(Cl)c(Cl)c1	Hexose transporter 1 (Plasmodium falciparum)	%	1.27
Nc1cc(-c2ccc3c(N)nccc3c2)ccc1Cl	Hexose transporter 1 (Plasmodium falciparum)	%	2.75

###

# measured.target: Hexose transporter 1 (Plasmodium falciparum) (UniProt O97467)
# assay.notes: ST_JUDE_LEISH: Cytotoxicity at 2uM final concentration against transgenic Leishmania Mexicana promastigotes LmPfHT that are glucose transport deficient and complemented with the Plasmodium falciparum hexose transporter. Activity is measured by DNA content using SYBR green in vitro
# Assay type: functional
Entries and their inhibition

molecule	measured.target	inhibition [%]
COc1ccc(CC(Cc2ccc(OC)cc2)NCC(O)c2cccc(Cl)c2)cc1 (centres undefined)	Hexose transporter 1 (Plasmodium falciparum) (UniProt O97467)	0.72
Cc1cccc2nc(-c3cccc(-c4ccc(NC(=O)CC5NC(=O)c6ccccc65)cc4)c3)[nH]c12 (centres undefined)	Hexose transporter 1 (Plasmodium falciparum) (UniProt O97467)	9.29
CCCCOc1cc(OC)c2ccccc2c1CCNCCCCNCCc1c(OCCCC)cc(OC)c2ccccc12	Hexose transporter 1 (Plasmodium falciparum) (UniProt O97467)	106
CN(C)Cc1cccc(-c2ccc(NC(=O)c3ccc4c(=O)n(C5CCCCC5)cnc4c3)cc2)c1	Hexose transporter 1 (Plasmodium falciparum) (UniProt O97467)	80.4
Fc1ccccc1CNc1ncc(-c2ccsc2)c(-c2nccs2)n1	Hexose transporter 1 (Plasmodium falciparum) (UniProt O97467)	0.2
CCCCCC(C)C(C)c1cc(O)c2c(c1)OC(C)(C)CC2=Cc1ccncc1 (centres undefined)	Hexose transporter 1 (Plasmodium falciparum) (UniProt O97467)	11.5
COc1ccc(-c2ccc(CNC(=O)c3ccc(C#N)cc3)c(F)c2)cc1CN1CCCN(C)CC1	Hexose transporter 1 (Plasmodium falciparum) (UniProt O97467)	0.66
Cc1ccc(NC(=O)c2cc([N+](=O)[O-])ccc2NCc2cccnc2)cc1Cl	Hexose transporter 1 (Plasmodium falciparum) (UniProt O97467)	0.38
CCOc1cc(C(=O)NC2CCN(Cc3ccccc3)C2)ccc1-c1nc2cc(Cl)ccc2[nH]1 (centres undefined)	Hexose transporter 1 (Plasmodium falciparum) (UniProt O97467)	3.47
CN1CCN(c2ccc(Nc3c4ccccc4nc4ccccc34)cc2)CC1	Hexose transporter 1 (Plasmodium falciparum) (UniProt O97467)	6.39
Cc1ccc2nc(Cl)c3cc(C(=O)NCCCN4CCCC4)sc3c2c1	Hexose transporter 1 (Plasmodium falciparum) (UniProt O97467)	10.2
COc1ccc(NC(=O)Nc2cccc(-c3ccc(-c4nc5cccc(C)c5[nH]4)s3)c2)cc1	Hexose transporter 1 (Plasmodium falciparum) (UniProt O97467)	5.29
CC(C)COc1ccc(Cl)cc1Cc1ccc(-c2nc3cc(N4CCN(C)CC4)ccc3[nH]2)o1	Hexose transporter 1 (Plasmodium falciparum) (UniProt O97467)	1.63
Cc1ccc2nc(C)cc(N/N=C/c3ccccc3[N+](=O)[O-])c2c1	Hexose transporter 1 (Plasmodium falciparum) (UniProt O97467)	6.78
CC1(C)NC(N)=NC(=N)N1OCCCOc1ccccc1Cl	Hexose transporter 1 (Plasmodium falciparum) (UniProt O97467)	10
CN1CCN=C1c1ccc(NC(=O)Nc2ccc(C3=NCCN3C)cc2)cc1	Hexose transporter 1 (Plasmodium falciparum) (UniProt O97467)	7.37
CC(C)Oc1cc2c(cc1NS(=O)(=O)c1ccc(-c3cccs3)cc1)CCN(C)CC2	Hexose transporter 1 (Plasmodium falciparum) (UniProt O97467)	2.07
O=c1cc(NCCCNCc2cccc(SC(F)(F)F)c2)[nH]c2ccccc12	Hexose transporter 1 (Plasmodium falciparum) (UniProt O97467)	3.61
Cc1c(C2CCN(CCCCNC(=O)c3ccc(-c4ccc(C#N)cc4)cc3)CC2)c2ccccc2n1CCO	Hexose transporter 1 (Plasmodium falciparum) (UniProt O97467)	0.33
Cc1cc(C)cc(OCC(O)CN(Cc2cc(Cl)cc(Cl)c2)C(=O)Nc2ccc(Cl)cc2)c1 (centres undefined)	Hexose transporter 1 (Plasmodium falciparum) (UniProt O97467)	-0.94
Cc1cccc2nc(-c3cccc(-c4ccc(NC(=O)C(C)C(=O)NC(C)C)cc4)c3)[nH]c12 (centres undefined)	Hexose transporter 1 (Plasmodium falciparum) (UniProt O97467)	2.05
CN1CCN(c2cccc(Nc3nccc(NCC(O)c4ccccc4)n3)c2)CC1 (centres undefined)	Hexose transporter 1 (Plasmodium falciparum) (UniProt O97467)	1.6
Clc1ccc2c(N3CCCNCC3)ccnc2c1	Hexose transporter 1 (Plasmodium falciparum) (UniProt O97467)	1.07
Cc1cc(Nc2ccnc(-c3ccc(Cl)cc3)n2)ccn1	Hexose transporter 1 (Plasmodium falciparum) (UniProt O97467)	8.43
O=C(Nc1ccc(-c2cccc(-c3nc4ccccc4[nH]3)c2)cc1)Nc1ccc2c(c1)OCO2	Hexose transporter 1 (Plasmodium falciparum) (UniProt O97467)	2.62
COc1ccc(C2CCN(CCCCNC(=O)c3ccc(NC(=O)c4ccc(Cl)cc4)cc3)CC2)cc1Cl	Hexose transporter 1 (Plasmodium falciparum) (UniProt O97467)	0.63
CN1CCN(CC(=O)Nc2ccc(-c3ccc(-c4nc5cc(C(F)(F)F)ccc5[nH]4)cc3)cc2)CC1	Hexose transporter 1 (Plasmodium falciparum) (UniProt O97467)	0.64
O=S(=O)(NCCN1CCCC1)c1ccc(-c2ccc(CNCc3ccsc3)cc2)cc1	Hexose transporter 1 (Plasmodium falciparum) (UniProt O97467)	6.54
COc1ccc(NC(=O)[C@H](CC(C)C)Nc2cc(C)nc(NCCc3ccccc3)n2)cc1	Hexose transporter 1 (Plasmodium falciparum) (UniProt O97467)	3.69
Cc1cccc(C)c1C1CCN(CCCCNC(=O)c2cc3ccccc3[nH]2)CC1	Hexose transporter 1 (Plasmodium falciparum) (UniProt O97467)	0.17
COc1ccc(-c2cccc(NC(=O)c3cccc(C#N)c3)c2)cc1CN1CCCN(C)CC1	Hexose transporter 1 (Plasmodium falciparum) (UniProt O97467)	1.13
COc1ccc(NC(=O)CCNc2cc(C)nc(NCc3cccc(C)c3)n2)cc1	Hexose transporter 1 (Plasmodium falciparum) (UniProt O97467)	0.43
CC(=O)c1cccc(NC(=O)NC2CCN(c3ccnc(Nc4ccc(F)cc4)n3)C2)c1 (centres undefined)	Hexose transporter 1 (Plasmodium falciparum) (UniProt O97467)	-0.93
CCCCCCN1CCN(Cc2cccc(NC(=O)c3ccc(Cl)c(Cl)c3)c2)CC1	Hexose transporter 1 (Plasmodium falciparum) (UniProt O97467)	6.59
COc1ccc(NC(=O)C2c3ccccc3C(=O)N(C3CCCC3)C2c2cccs2)cc1OC (centres undefined)	Hexose transporter 1 (Plasmodium falciparum) (UniProt O97467)	5.65
CCCCNCc1ccc(-c2nc(CN(CCCN3CCN(C)CC3)C(=O)Nc3cccc(Cl)c3)cs2)cc1	Hexose transporter 1 (Plasmodium falciparum) (UniProt O97467)	9.93
CCN(CC)CCCN(CCCN(CC)CC)c1cc(C)nc(Nc2ccc3cc(Br)ccc3c2)n1	Hexose transporter 1 (Plasmodium falciparum) (UniProt O97467)	4.9
COc1ccc(CNC2CCN(c3ccc(NC(=O)c4cccc(Cl)c4)cc3)CC2)cc1OC	Hexose transporter 1 (Plasmodium falciparum) (UniProt O97467)	1.47
CCCCNCC(O)COc1ccccc1-c1ccc(N/N=C/c2cccc3ccccc23)nn1 (centres undefined)	Hexose transporter 1 (Plasmodium falciparum) (UniProt O97467)	3.6
